Assay: Intrinsic clearance in rat liver microsomes
Type: ADME, Microsome
Details: read-out: CLH
quantityName: CLint scaled (mL/min/kg)
Express it in mL/min/kg; write the number only.

O=C(Nc1nc(-c2ccc(OC(F)(F)F)cc2)cs1)[C@H]1CCCCN1S(=O)(=O)c1ccc(OC(F)(F)F)cc1 : 20.6

GET /values?readout=CLint scaled&item= COc1ccc(-c2csc(NC(=O)[C@H]3CCCCN3S(=O)(=O)c3ccc(C)cc3)n2)cc1
64.7

###

Biological target: UniProt:P51787
Sequence (P51787 whole entry): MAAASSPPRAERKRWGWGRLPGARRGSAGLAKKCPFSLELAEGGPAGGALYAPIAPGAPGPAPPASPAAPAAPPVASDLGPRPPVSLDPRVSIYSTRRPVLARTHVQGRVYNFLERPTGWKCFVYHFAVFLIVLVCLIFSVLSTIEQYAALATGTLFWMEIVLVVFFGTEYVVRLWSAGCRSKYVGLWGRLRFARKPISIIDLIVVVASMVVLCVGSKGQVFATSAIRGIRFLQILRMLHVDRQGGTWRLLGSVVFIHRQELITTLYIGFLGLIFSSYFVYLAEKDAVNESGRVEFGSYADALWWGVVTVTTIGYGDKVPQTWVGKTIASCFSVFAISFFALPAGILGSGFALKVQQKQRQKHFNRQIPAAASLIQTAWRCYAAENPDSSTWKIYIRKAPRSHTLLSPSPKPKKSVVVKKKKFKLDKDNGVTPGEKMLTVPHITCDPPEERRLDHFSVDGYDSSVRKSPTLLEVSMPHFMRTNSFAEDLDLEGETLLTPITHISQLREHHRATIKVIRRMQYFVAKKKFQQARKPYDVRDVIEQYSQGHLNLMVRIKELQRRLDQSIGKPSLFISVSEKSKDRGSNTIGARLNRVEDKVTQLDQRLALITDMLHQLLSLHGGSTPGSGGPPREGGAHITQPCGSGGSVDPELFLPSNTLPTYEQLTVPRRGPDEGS
Experiment: Activation of Kv7.1 channel expressed in CHO cells assessed as depolarization-induced […] after 3 mins by patch clamp assay
This section presents molecules with their documented EC50 values.
Write the answer as a number in nM, unit excluded.

Use the examples below as a reference point.
COc1ccc(-c2csc(NC(=O)C3CCCCN3S(=O)(=O)c3ccccc3)n2)cc1 (racemic) : 1690
COc1ccc(-c2csc(NC(=O)[C@H]3CCCCN3S(=O)(=O)c3ccccc3)n2)cc1 : 1470

# query: EC50 | item COc1ccc(-c2csc(NC(=O)[C@H]3CCCCN3S(=O)(=O)c3ccc4c(c3)OCO4)n2)cc1 | system: UniProt:P51787
780

// data source = ChEMBL document CHEMBL2069205
